Data origin, for the record: patent US6699887B2

molecular target: HIV-1 RT (Human immunodeficiency virus type 1 group M subtype B, UniProt P04585); assay: HIV-1 Reverse Transcriptase Assay: Inhibitor IC50 Determination; details: purified recombinant enzyme, poly(rA)/oligo(dT)16 template-primer, 37° C. 30 min
The entries below are paired with their reported IC50.

Item smiles	Display unit	IC50
Cc1cc(C)cc(Sc2c(Cc3ccccn3)c(C)nn2C(C)C)c1	nM	950
Cc1nn(C(C)C)c(Sc2cc(Cl)cc(Cl)c2)c1COCc1ccccc1	nM	349
Cc1cc(Cc2c(C)nn(C(C)C)c2Sc2cc(Cl)cc(Cl)c2)cc(Cl)n1	nM	880
Cc1nn(C(C)C)c(Sc2cc(Cl)cc(Cl)c2)c1Cc1cccnc1	nM	572
CCn1nc(COC)c(Cc2ccccc2)c1Sc1cc(Cl)cc(Cl)c1	nM	8040
Cc1cccc(Sc2c(Cc3ccncc3F)c(C)nn2C(C)C)c1	nM	480
Cc1nn(C(C)C)c(Sc2cc(Cl)cc(Cl)c2)c1Cc1ccccn1	nM	1070
Cc1nn(C(C)C)c(Sc2cc(Cl)cc(Cl)c2)c1Cc1ccc(C#N)cc1	nM	176
Cc1nn(-c2ccccc2)c(Sc2cc(Cl)cc(Cl)c2)c1Cc1ccccc1	nM	2060
Cc1nn(-c2ccccc2)c(Sc2cc(Cl)cc(Cl)c2)c1Cc1ccncc1	nM	105
Cc1nn(C(C)C)c(Sc2cccc(Br)c2)c1Cc1ccncc1Cl	nM	5200
